Values compiled from patent US11661431B2.

# TESTED_TARGET: TLR8 (Homo sapiens (Human), UniProt Q9NR97)
# Sequence (Q9NR97 27-1041): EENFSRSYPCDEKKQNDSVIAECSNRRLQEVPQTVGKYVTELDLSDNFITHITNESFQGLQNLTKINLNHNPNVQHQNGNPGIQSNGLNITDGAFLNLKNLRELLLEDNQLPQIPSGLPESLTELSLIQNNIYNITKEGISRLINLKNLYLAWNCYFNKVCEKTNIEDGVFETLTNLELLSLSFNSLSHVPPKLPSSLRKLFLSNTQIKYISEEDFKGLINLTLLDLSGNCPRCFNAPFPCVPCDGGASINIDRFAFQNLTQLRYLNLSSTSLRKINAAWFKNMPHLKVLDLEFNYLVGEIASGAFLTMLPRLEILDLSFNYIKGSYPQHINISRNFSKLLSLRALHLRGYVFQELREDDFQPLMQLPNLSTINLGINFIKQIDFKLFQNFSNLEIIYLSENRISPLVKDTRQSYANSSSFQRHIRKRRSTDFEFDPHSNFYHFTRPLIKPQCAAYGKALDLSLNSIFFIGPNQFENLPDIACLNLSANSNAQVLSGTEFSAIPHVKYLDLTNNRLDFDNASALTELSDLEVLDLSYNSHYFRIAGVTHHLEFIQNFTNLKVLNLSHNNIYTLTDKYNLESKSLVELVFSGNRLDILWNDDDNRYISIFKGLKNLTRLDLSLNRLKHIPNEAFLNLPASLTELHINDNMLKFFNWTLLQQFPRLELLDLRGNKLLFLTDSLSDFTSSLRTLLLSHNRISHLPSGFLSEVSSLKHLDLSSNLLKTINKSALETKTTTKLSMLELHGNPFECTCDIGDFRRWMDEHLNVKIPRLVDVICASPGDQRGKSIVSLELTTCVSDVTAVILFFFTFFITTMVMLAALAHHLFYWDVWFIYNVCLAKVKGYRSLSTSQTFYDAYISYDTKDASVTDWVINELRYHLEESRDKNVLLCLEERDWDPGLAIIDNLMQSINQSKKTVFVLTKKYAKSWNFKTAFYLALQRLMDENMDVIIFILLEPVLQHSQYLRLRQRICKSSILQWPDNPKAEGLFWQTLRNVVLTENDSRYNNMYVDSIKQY
# TEST_SUMMARY: TLR8 human peripheral blood mononuclear cell (PBMC) cell-based assay (Compound A as agonist; TNFα and IL12p40 readout)
# EXPERIMENTAL_PARAMETERS: human PBMCs, TLR8 agonist Compound A at 800 nM, 6 hours, antagonist potency; read-out: TLR-8 EC50
In this section we review reported pEC50 values for a set of compounds.
Kindly note that pEC50 refers to -log10 of the concentration in mol/L and answer with the value alone.

{"columns": ["COMPOUND", "ASSAY_METRIC", "RESULT_VALUE"],
 "data": [
  ["Cc1c(-c2[nH]c3sc(C4CCC5(CC4)CNCCO5)c(C)c3c2C(C)C)cn2ncnc2c1C (single isomer, unassigned) [Example 292]", "pEC50", 8.41],
  ["Cc1c(-c2[nH]c3sc(C4CCN(C(=O)[C@H]5CNCCO5)CC4)c(C)c3c2C(C)C)cn2ncnc2c1C", "pEC50", 8.21],
  ["Cc1c(-c2[nH]c3sc([C@@H]4C[C@@H]5C[C@H]4CN5C(C)C(N)=O)c(C)c3c2C(C)C)cn2ncnc2c1C (stereo partly shown) [Example 81]", "pEC50", 9.35],
  ["Cc1c(-c2[nH]c3sc(C4CCN(C(=O)C5(N)COC5)CC4)c(C)c3c2C(C)C)cn2ncnc2c1C", "pEC50", 7.31],
  ["Cc1c(-c2[nH]c3sc([C@H]4C[C@@H]5C[C@H]4CN5CC(N)=O)c(C)c3c2C(C)C)cn2ncnc2c1C", "pEC50", 8.55]
]}

Could you share which pEC50 value was measured for Cc1c(-c2[nH]c3sc([C@@H]4C[C@@H]5C[C@H]4CN5C(C)C(N)=O)c(C)c3c2C(C)C)cn2ncnc2c1C (single isomer, unassigned) [Example 101] ?
9.14

Need pEC50 of Cc1c(C23CCNCC2C3)sc2[nH]c(-c3cc(C)c4ncnn4c3)c(C(C)C)c12 (stereo not shown) , thanks.
8.67

###

# TESTED_TARGET: TLR7 (Homo sapiens (Human))
# Sequence (Q9NYK1 27-1049): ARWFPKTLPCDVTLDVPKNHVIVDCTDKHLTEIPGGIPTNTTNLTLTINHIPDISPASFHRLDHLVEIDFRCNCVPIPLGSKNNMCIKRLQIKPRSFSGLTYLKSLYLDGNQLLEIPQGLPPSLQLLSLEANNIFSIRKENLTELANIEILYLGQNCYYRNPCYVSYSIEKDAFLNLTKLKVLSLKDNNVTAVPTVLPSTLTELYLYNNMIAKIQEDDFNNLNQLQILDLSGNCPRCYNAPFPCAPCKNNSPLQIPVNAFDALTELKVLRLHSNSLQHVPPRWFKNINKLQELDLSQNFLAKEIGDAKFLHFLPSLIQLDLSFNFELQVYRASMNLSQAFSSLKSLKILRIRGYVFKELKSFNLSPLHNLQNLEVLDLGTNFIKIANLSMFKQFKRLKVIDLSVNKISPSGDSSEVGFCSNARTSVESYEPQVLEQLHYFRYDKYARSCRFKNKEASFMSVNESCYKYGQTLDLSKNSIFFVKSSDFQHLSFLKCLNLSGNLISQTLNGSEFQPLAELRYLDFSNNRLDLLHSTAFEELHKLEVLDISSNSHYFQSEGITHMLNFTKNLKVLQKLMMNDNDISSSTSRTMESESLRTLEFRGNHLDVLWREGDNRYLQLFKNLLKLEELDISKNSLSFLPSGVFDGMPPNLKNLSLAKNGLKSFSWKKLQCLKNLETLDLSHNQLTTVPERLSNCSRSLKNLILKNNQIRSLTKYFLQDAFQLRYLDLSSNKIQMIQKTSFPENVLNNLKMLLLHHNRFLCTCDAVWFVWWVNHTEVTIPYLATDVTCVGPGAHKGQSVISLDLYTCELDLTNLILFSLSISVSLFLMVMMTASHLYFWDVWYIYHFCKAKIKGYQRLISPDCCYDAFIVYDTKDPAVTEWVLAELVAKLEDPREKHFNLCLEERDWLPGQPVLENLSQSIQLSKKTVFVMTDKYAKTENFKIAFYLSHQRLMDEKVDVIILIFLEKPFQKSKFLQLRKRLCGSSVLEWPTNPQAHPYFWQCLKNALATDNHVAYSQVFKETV
# TEST_SUMMARY: TLR7 human peripheral blood mononuclear cell (PBMC) cell-based assay (GS-986 as agonist; IL-6 and IFNα readout)
# EXPERIMENTAL_PARAMETERS: human PBMCs, TLR7 agonist GS-986 at 400 nM, 6 hours, antagonist potency; read-out: TLR-7 EC50
ASSAY_METRIC: EC50

The following molecules have reported results that may help.
{"columns": ["MOLECULE", "EC50"],
 "data": [
  ["Cc1cc(-c2[nH]c3sc(C4CCN(C(=O)[C@H]5COCCN5)CC4)c(CO)c3c2C(C)C)cn2ncnc12", "0.31 nM"],
  ["Cc1c(-c2[nH]c3sc(C4CCNCC4)cc3c2C(C)C)cn2ncnc2c1C", "0.26 nM"],
  ["Cc1c(-c2[nH]c3sc([C@@H]4C[C@@H]5C[C@H]4CN5CCC#N)c(C)c3c2C(C)C)cn2ncnc2c1C", "1.2 nM"]
]}

Give its EC50 value. Item: Cc1c(C2CCCN(CC(N)=O)CC2)sc2[nH]c(-c3cc(C)c4ncnn4c3)c(C(C)C)c12 (single isomer, unassigned) [Example 262]
< 0.05 nM

Endpoint output: EC50 of CO[C@H]1CN[C@@H](C(=O)N2CCC(c3sc4[nH]c(-c5cc(C)c6ncnn6c5)c(C(C)C)c4c3C)CC2)C1 . Value?
0.37 nM

Any idea what its EC50 is? The molecule is Cc1c(-c2[nH]c3sc([C@@H]4C[C@@H]5C[C@H]4CN5C(=O)[C@H]4COCCN4)c(C)c3c2C(C)C)cn2ncnc2c1C
0.9 nM
